measurement_protocol: RP, Thermo Scientific Hypersil GOLD aQ, 100 × 2.1 mm, 1.9 µm, 30 °C, 0.3 mL/min, estimated dead time 0.73 min; A: water + 0.1% formic acid; B: methanol + 0.1% formic acid + 4 mM ammonium formate; gradient (min/%B) 0/0 1/0 8/100 10/100
condition_parameters: stereoisomer not certain
# Lookup of reported LC retention time keyed by entry
observation_type: LC retention time

{"compound": "CC(C)CC1C(=O)N2CCCC2C2(O)OC(C)(NC(=O)C3C=C4c5cccc6[nH]cc(c56)CC4N(C)C3)C(=O)N12 (stereo not given)", "observation_type": "LC retention time", "observed": "6.11 min"}
{"compound": "COc1cc2c(c3oc(=O)c4c(c13)CCOC4=O)C1C=COC1O2 (stereo not given)", "observation_type": "LC retention time", "observed": "5.89 min"}
{"compound": "COc1cc2c(c3oc(=O)c4c(c13)CCC4=O)C1CCOC1O2 (stereo not given)", "observation_type": "LC retention time", "observed": "6.11 min"}
{"compound": "CC1=CC2OC3C(O)C(O)C(C)(C2(CO)CC1OC(=O)CC(C)C)C31CO1 (stereo not given)", "observation_type": "LC retention time", "observed": "6.17 min"}
{"compound": "COCC1OC(=O)c2coc3c2C1(C)C1=C(C3=O)C2CCC(=O)C2(C)CC1OC(C)=O (stereo not given)", "observation_type": "LC retention time", "observed": "6.14 min"}

Where do the numbers come from? From the RepoRT retention time repository (doi:10.1016/j.foodchem.2018.11.056).
